Origin of measurements: patent US20260200890A1

Target: Zα domain of ADAR1 p150 (Homo sapiens, UniProt P55265)
Construct: 10 μg/ml of Zα domain of ADAR1 was immobilized on CM5 chip using anti-HIS antibody; made in house
Sequence (P55265 133-199 limits assumed): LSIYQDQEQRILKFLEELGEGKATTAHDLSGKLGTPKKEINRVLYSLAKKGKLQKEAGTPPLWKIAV
Assay: SPR binding assay
Conditions: 6× his tag Zα domain immobilized on CM5 chip, analyte 0-25 μM
Experimental: 6× his tag Za domain of ADAR1 p150 was purified using bacterial purification system. Protein was isolated from supernatant of cell lysate using Ni-NTA resin. For binding assay using SPR, 10 μg/ml of Zα domain of ADAR1 was immobilized on CM5 chip using anti-HIS antibody. […]
So I've got a bunch of molecules here, and I need their Kd values.

Take a look at these entries with their results.
{"MOLECULAR_STRING": "CCOC(=O)c1cc(-c2ccccc2)sc1-c1coc(CNc2cccc(NS(C)(=O)=O)c2)c1", "TARGET_UNDER_TEST": "Zα domain of ADAR1 p150 (Homo sapiens, UniProt P55265)", "QUANTITY_MEASURED": "Kd", "REPORTED_RESULT": "1 to 10 µM"}
{"MOLECULAR_STRING": "CCOC(=O)c1cc(-c2ccccc2)sc1NC(=O)CNC(=O)Cc1cccc(Br)c1", "TARGET_UNDER_TEST": "Zα domain of ADAR1 p150 (Homo sapiens, UniProt P55265)", "QUANTITY_MEASURED": "Kd", "REPORTED_RESULT": "≤ 1 µM"}
{"MOLECULAR_STRING": "CCOC(=O)c1cc(-c2ccccc2)sc1NC(=O)CN(C)C(=O)c1cccc(P(=O)(O)O)c1", "TARGET_UNDER_TEST": "Zα domain of ADAR1 p150 (Homo sapiens, UniProt P55265)", "QUANTITY_MEASURED": "Kd", "REPORTED_RESULT": "≤ 1 µM"}
{"MOLECULAR_STRING": "CCOC(=O)c1cc(-c2ccccc2)sc1NC(=O)CNC(=O)c1cccc(P(=O)(OCC)OCC)c1", "TARGET_UNDER_TEST": "Zα domain of ADAR1 p150 (Homo sapiens, UniProt P55265)", "QUANTITY_MEASURED": "Kd", "REPORTED_RESULT": "> 25 µM"}
{"MOLECULAR_STRING": "CCOC(=O)c1cc(-c2ccccc2)sc1NC(=O)CN1C[C@H]2CC[C@@H](C1)N2S(C)(=O)=O", "TARGET_UNDER_TEST": "Zα domain of ADAR1 p150 (Homo sapiens, UniProt P55265)", "QUANTITY_MEASURED": "Kd", "REPORTED_RESULT": "> 25 µM"}
{"MOLECULAR_STRING": "CCOC(=O)c1cc(-c2ccc(P(=O)(OCC)OCC)cc2)sc1NC(=O)COC(=O)c1cccc(NS(C)(=O)=O)c1", "TARGET_UNDER_TEST": "Zα domain of ADAR1 p150 (Homo sapiens, UniProt P55265)", "QUANTITY_MEASURED": "Kd", "REPORTED_RESULT": "> 25 µM"}

(Q) Give Kd only, for CCOC(=O)c1cc(-c2ccccc2)sc1NC(=O)CNC(=O)Cc1ccc(P(=O)(OCC)OCC)cc1 , using Zα domain of ADAR1 p150 (Homo sapiens, UniProt P55265) data.
(A) ≤ 1 µM

----------
Target: ADAR1 (Homo sapiens)
Construct: endogenous in cells
Experiment: ADAR1 Inhibition Assay (IFN fold-induction, Quanti-Luc luminescence, p110 KO A549 dual cells)
Settings: IFN fold-induction vs DMSO, 24 and 48 h
pEC50: −log10 of the molar value.
So I've got a bunch of compounds here, and I need their pEC50 values.

{"MOLECULAR_STRING": "CCOC(=O)c1cc(-c2ccccc2)sc1NC(=O)CNC(=O)c1cccc(S(=O)(=O)N2CCNCC2)c1", "pEC50": "< 4.00"}

Respectfully, I request pEC50 for each entry included below.
1. CCOC(=O)c1cc(-c2ccccc2)sc1NC(=O)COC(=O)c1cccc(NS(=O)(=O)c2ccc(C)cc2)c1
2. CCOC(=O)c1cc(-c2ccccc2)sc1NC(=O)COC(=O)c1cccc(NS(=O)(=O)C2CCCCC2)c1
3. CCOC(=O)c1nc(-c2ccccc2)oc1NC(=O)COC(=O)c1cccc(P(=O)(OCC)OCC)c1
4. CCOC(=O)c1cc(-c2ccc3c(cnn3C)c2)sc1NC(=O)COC(=O)c1cccc(NS(C)(=O)=O)c1
5. CCOC(=O)c1cc(Cc2ccccc2)sc1NC(=O)COC(=O)c1cccc(NS(C)(=O)=O)c1

(A)
1. < 4.00
2. < 4.00
3. 4.00 to 4.30
4. 4.00 to 4.30
5. < 4.00

(Q) Give pEC50 only, for CCOC(=O)c1cc(-c2ccccc2)sc1NC(=O)CNC(=O)c1cccc(S(=O)(=O)NC)c1 , using ADAR1 (Homo sapiens) data.
(A) < 4.00

----------
Target or system Zα domain of ADAR1 p150 (Homo sapiens, UniProt P55265); recorded quantity Kd.

{"COMPOUND": "CCOC(=O)c1cc(-c2ccccc2)sc1C(=O)CNC(=O)c1cccc(NS(C)(=O)=O)c1 [Compound 292]", "TARGET_UNDER_TEST": "Zα domain of ADAR1 p150 (Homo sapiens, UniProt P55265)", "Kd": "≤ 1000 nM"}
{"COMPOUND": "CCOC(=O)c1cc(-c2ccccc2)sc1NC(=O)COC(=O)c1cccc(C(=O)OC)c1 [Compound 359]", "TARGET_UNDER_TEST": "Zα domain of ADAR1 p150 (Homo sapiens, UniProt P55265)", "Kd": "≤ 1000 nM"}
{"COMPOUND": "CCOC(=O)c1cc(-c2ccccc2)[nH]c1NC(=O)COC(=O)c1cccc(P(=O)(OCC)OCC)c1 [Compound 349]", "TARGET_UNDER_TEST": "Zα domain of ADAR1 p150 (Homo sapiens, UniProt P55265)", "Kd": "> 25000 nM"}
{"COMPOUND": "CCOC(=O)c1cc(-c2ccccc2)sc1NC(=O)COC(=O)c1cccc(C#N)c1 [Compound 71]", "TARGET_UNDER_TEST": "Zα domain of ADAR1 p150 (Homo sapiens, UniProt P55265)", "Kd": "≤ 1000 nM"}
{"COMPOUND": "CCOC(=O)c1cc(-c2ccccc2)sc1NC(=O)CNC(=O)Cc1cccc(C(F)(F)F)c1 [Compound 326]", "TARGET_UNDER_TEST": "Zα domain of ADAR1 p150 (Homo sapiens, UniProt P55265)", "Kd": "≤ 1000 nM"}
{"COMPOUND": "CCOC(=O)c1cc(-c2ccccc2)sc1NC(=O)C1CCCCN1C(=O)Cc1cccc(NS(C)(=O)=O)c1 (centres unmarked) [Compound 380]", "TARGET_UNDER_TEST": "Zα domain of ADAR1 p150 (Homo sapiens, UniProt P55265)", "Kd": "≤ 1000 nM"}

Respectfully, I request Kd for each entry included below.
1. CCOC(=O)c1cc(-c2ccccc2)sc1NC(=O)COC(=O)c1ccc(P(=O)(O)O)cc1 [Compound 424]
2. CCOC(=O)c1cc(-c2ccccc2)sc1NC(=O)COC(=O)C1CCCC(NS(C)(=O)=O)C1 (centres unmarked) [Compound 150]

(A)
1. ≤ 1000 nM
2. > 25000 nM

----------
pKd: −log10 of the molar value.
Target or system Zα domain of ADAR1 p150 (Homo sapiens, UniProt P55265); recorded quantity pKd.

Take a look at these entries with their results.
{"COMPOUND": "CCOC(=O)c1cc(-c2ccccc2)sc1NC(=O)COC(=O)c1cccc(C(F)(F)F)c1", "TARGET_UNDER_TEST": "Zα domain of ADAR1 p150 (Homo sapiens, UniProt P55265)", "REPORTED_RESULT": "< 4.60"}
{"COMPOUND": "CCOC(=O)c1cc(-c2ccccc2)sc1NC(=O)COC(=O)c1cccc(P(=O)(OCC)OCC)c1", "TARGET_UNDER_TEST": "Zα domain of ADAR1 p150 (Homo sapiens, UniProt P55265)", "REPORTED_RESULT": "≥ 6.00"}
{"COMPOUND": "CCOC(=O)c1cc(-c2ccccc2)sc1NC(=O)[C@@H]1CCN(C(=O)c2cccc(P(=O)(OCC)OCC)c2)C1", "TARGET_UNDER_TEST": "Zα domain of ADAR1 p150 (Homo sapiens, UniProt P55265)", "REPORTED_RESULT": "≥ 6.00"}
{"COMPOUND": "CCOC(=O)c1cc(-c2ccccc2)sc1NC(=O)COC(=O)c1cccc(OS(=O)(=O)F)c1", "TARGET_UNDER_TEST": "Zα domain of ADAR1 p150 (Homo sapiens, UniProt P55265)", "REPORTED_RESULT": "≥ 6.00"}
{"COMPOUND": "CCOC(=O)c1cc(-c2ccccc2)sc1NC(=O)C1CCCN1C(=O)c1cccc(S(N)(=O)=O)c1 (stereo not drawn)", "TARGET_UNDER_TEST": "Zα domain of ADAR1 p150 (Homo sapiens, UniProt P55265)", "REPORTED_RESULT": "5.00 to 6.00"}

Respectfully, I request pKd for each entry included below.
1. CCOC(=O)c1sc(NC(=O)COC(=O)c2cccc(P(=O)(OCC)OCC)c2)nc1-c1ccccc1
2. CCOC(=O)c1cc(-c2ccccc2)sc1NC(=O)C1CCN(C(=O)c2cccc(P(=O)(OCC)OCC)c2)C1 (stereo not drawn)
3. CCOC(=O)c1cc(-c2ccccc2)sc1NC(=O)Cn1cc(C(=O)Nc2cccc(P(=O)(O)O)c2)nn1

(A)
1. < 4.60
2. < 4.60
3. ≥ 6.00

Respectfully, I request pKd for each entry included below.
1. CCOC(=O)c1cc(-c2ccccc2)sc1NC(=O)CNC(=O)Cc1ccc(Cl)c(NS(C)(=O)=O)c1
2. CCOC(=O)c1cc(-c2ccccc2)sc1NC(=O)[C@H]1CCN(C(=O)c2cccc(S(=O)(=O)NC(C)=O)c2)C1
3. CCOC(=O)c1cc(-c2ccccc2)sc1NC(=O)[C@H]1CCN(C(=O)c2cccc(P(=O)(OCC)OCC)c2)C1
4. CCOC(=O)c1cc(-c2ccccc2)sc1NC(=O)COC(=O)c1ccc(P(=O)(OCC)OCC)cc1
5. CCOC(=O)c1cc(-c2ccccc2)sc1NC(=O)COC(=O)c1cccc(NS(=O)(=O)C2CC2)c1
6. CCOC(=O)c1cc(-c2ccccc2)sc1NC(=O)CNC(=O)CCc1cccc(NS(C)(=O)=O)c1
7. CS(=O)(=O)Nc1cccc(C(=O)OCc2nc(=O)c3cc(-c4ccccc4)sc3[nH]2)c1

(A)
1: ≥ 6.00; 2: ≥ 6.00; 3: ≥ 6.00; 4: ≥ 6.00; 5: < 4.60; 6: ≥ 6.00; 7: ≥ 6.00
